Answer each item with its documented IC50.
molecular target: CDK4 (GST-CDK4(1-303end)/GST-CycD3(1-292end)) (Homo sapiens, UniProt P11802); construct: GST-CDK4(1-303end); purchased Carna 04-105; assay: CDK4 activity inhibition experiment (Caliper mobility shift assay); assay type: biochemical; conditions: enzyme activity inhibition; read-out: CDK4 IC50 class
Sequence (P11802 whole entry): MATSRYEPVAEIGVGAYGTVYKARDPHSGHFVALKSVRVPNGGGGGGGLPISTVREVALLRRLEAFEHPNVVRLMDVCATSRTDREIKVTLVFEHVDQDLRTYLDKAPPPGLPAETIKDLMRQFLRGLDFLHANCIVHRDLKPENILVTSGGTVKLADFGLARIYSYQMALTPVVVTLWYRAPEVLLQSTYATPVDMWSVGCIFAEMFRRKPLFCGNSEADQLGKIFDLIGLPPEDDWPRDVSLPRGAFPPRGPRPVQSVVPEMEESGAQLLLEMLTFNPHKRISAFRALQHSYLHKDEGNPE
Sequence (P30281 whole entry partner): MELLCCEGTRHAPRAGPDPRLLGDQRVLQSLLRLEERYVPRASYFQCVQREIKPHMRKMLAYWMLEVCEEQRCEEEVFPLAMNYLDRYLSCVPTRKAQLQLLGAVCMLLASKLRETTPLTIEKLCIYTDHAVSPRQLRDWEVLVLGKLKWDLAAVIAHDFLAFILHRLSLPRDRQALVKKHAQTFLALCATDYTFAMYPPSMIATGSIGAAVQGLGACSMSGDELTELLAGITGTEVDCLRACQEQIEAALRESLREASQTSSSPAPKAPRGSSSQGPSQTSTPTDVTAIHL

Request: Provide only the value of recorded IC50 for `CC(=O)c1c(C)c2cnc(Nc3ccc(C4CCN(CCCS(C)(=O)=O)CC4)cn3)nc2n(C2CCCC2)c1=O`
Result: < 10 nM

Request: Provide only the value of recorded IC50 for CC(=O)c1c(C)c2cnc(Nc3ccc(C4CCCN(CCS(C)(=O)=O)C4)cn3)nc2n(C2CCCC2)c1=O (stereo not shown)
Result: 10 to 50 nM

Request: Provide only the value of recorded IC50 for `CC(=O)c1c(C)c2cnc(Nc3ccc(C4CCN(CCS(C)(=O)=O)CC4)cn3)cc2n(C2CCCC2)c1=O`
Result: < 10 nM

Request: Provide only the value of recorded IC50 for `CC(=O)c1c(C)c2cnc(Nc3ccc(C4CCN(CCS(C)(=O)=O)CC4)cn3)nc2n(C2CCCC2)c1=O`
Result: < 10 nM

----------
Answer each item with its documented AUC(0-inf).
assay: Pharmacokinetic (PK) experiment in rats; format: in vivo; settings: male, SD, plasma, po; rat, intragastric 20 mg/kg, 0-Inf
Returns: string containing the number followed by the unit.

Request: Provide only the value of recorded AUC(0-inf) for CC(=O)c1c(C)c2cnc(Nc3ccc(C4CCN(CCCS(C)(=O)=O)CC4)cn3)nc2n(C2CCCC2)c1=O [Compound 2]
Result: 11700 ng·h/mL

Request: Provide only the value of recorded AUC(0-inf) for CC(=O)c1c(C)c2cnc(Nc3ccc(C4CCN(CCS(C)(=O)=O)CC4)cn3)nc2n(C2CCCC2)c1=O [Compound 1]
Result: 4540 ng·h/mL

Request: Provide only the value of recorded AUC(0-inf) for CC(=O)c1c(C)c2cnc(Nc3ccc(N4CCNCC4)cn3)nc2n(C2CCCC2)c1=O [PD-0332991, Palbociclib, reference compound]
Result: 1400 ng·h/mL

----------
pIC50: −log10 of the molar value.
# collection of pIC50 values tested on CDK6 (GST-CDK6(1-326end)) (Homo sapiens)
# Sequence (Q00534 whole entry): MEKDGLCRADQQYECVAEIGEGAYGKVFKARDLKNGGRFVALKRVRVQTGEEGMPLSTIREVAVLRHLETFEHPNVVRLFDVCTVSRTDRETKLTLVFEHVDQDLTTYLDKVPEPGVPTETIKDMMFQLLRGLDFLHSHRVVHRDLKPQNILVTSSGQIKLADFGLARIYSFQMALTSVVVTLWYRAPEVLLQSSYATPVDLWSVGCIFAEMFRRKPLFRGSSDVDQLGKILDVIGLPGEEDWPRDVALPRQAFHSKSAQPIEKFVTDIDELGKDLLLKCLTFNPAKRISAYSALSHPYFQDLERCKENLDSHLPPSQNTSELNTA
# Sequence (P30281 whole entry partner): as the sequence (P30281 whole entry partner) above

Request: Provide only the value of recorded pIC50 for CC(=O)c1c(C)c2cnc(Nc3ccc(C4CCCN(CCS(C)(=O)=O)C4)cn3)nc2n(C2CCCC2)c1=O (centres unmarked)
Result: 7.30 to 8.00

Request: Provide only the value of recorded pIC50 for `CC(=O)c1c(C)c2cnc(Nc3ccc(C4CCN(CCS(C)(=O)=O)CC4)cn3)nc2n(C2CCCC2)c1=O`
Result: 7.30 to 8.00

----------
system: SW620; assay: Tumor cell proliferation inhibition (CellTiter-Glo), SW620; type: cell-based; conditions: Homo sapiens, SW-620; 72 hours, 10% fetal bovine serum; read-out: SW620 IC50 class
Measurement Type: IC50

Request: Provide only the value of recorded IC50 for CCN1CCN(Cc2ccc(Nc3ncc(F)c(-c4cc(F)c5nc(C)n(C(C)C)c5c4)n3)nc2)CC1 [LY2835219, reference compound]
Result: 100 to 500 nM

Request: Provide only the value of recorded IC50 for CC(=O)c1c(C)c2cnc(Nc3ccc(C4CCN(CCS(C)(=O)=O)CC4)cn3)nc2n(C2CCCC2)c1=O [Compound 1]
Result: 100 to 500 nM

Request: Provide only the value of recorded IC50 for CN(C)C(=O)c1cc2cnc(Nc3ccc(N4CCNCC4)cn3)nc2n1C1CCCC1 [LEE011, reference compound]
Result: 500 to 1000 nM

Request: Provide only the value of recorded IC50 for CC(=O)c1c(C)c2cnc(Nc3ccc(C4CCN(CCS(C)(=O)=O)CC4)cn3)cc2n(C2CCCC2)c1=O [Compound 13]
Result: 1000 to 5000 nM
